Molecular target: Metabotropic glutamate receptor 6 (Rattus norvegicus)
Sequence (P35349 whole entry): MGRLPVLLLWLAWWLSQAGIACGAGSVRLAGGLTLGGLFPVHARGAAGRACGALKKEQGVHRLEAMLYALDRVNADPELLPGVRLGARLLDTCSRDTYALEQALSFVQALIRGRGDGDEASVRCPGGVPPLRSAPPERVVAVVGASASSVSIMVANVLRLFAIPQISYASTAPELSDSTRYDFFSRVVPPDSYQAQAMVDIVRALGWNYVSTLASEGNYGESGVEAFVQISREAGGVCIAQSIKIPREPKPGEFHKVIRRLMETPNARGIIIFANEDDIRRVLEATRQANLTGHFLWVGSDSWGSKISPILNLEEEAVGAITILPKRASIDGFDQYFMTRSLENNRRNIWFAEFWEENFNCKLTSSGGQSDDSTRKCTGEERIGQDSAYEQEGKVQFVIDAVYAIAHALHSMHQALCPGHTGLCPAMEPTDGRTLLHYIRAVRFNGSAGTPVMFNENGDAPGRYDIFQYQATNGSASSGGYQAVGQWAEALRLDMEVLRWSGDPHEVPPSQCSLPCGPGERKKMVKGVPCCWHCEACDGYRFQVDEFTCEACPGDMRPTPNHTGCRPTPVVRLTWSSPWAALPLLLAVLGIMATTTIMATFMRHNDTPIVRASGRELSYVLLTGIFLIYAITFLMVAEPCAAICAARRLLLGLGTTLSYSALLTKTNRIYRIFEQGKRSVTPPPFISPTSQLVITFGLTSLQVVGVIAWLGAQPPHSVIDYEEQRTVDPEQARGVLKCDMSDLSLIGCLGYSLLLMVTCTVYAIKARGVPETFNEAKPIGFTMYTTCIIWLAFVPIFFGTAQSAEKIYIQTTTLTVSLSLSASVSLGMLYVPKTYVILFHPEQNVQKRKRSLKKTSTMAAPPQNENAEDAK
Assay: Activity at rat recombinant mGluR6 expressed in CHO cells assessed as cAMP production
pEC50: −log10 of the molar value.
measurement-name: pEC50

[[record]]
molecule = "NC(C(=O)O)[C@@H]1[C@@H](c2ccccc2)[C@H]1P(=O)(O)O (stereo partly drawn)"
modifier_sign = "<"
reported = 3.00

[[record]]
molecule = "NC(C(=O)O)[C@H]1C[C@@H]1P(=O)(O)O (stereo partly drawn)"
modifier_sign = "="
reported = 4.89

[[record]]
molecule = "NC(C(=O)O)[C@H]1[C@H](c2ccccc2)[C@@H]1P(=O)(O)O (stereo partly drawn)"
modifier_sign = "="
reported = 4.29


* * *

Catalogue of pEC50 readings, one per entry.
Target: Metabotropic glutamate receptor 7 (Homo sapiens, UniProt Q14831)
Sequence (Q14831 whole entry): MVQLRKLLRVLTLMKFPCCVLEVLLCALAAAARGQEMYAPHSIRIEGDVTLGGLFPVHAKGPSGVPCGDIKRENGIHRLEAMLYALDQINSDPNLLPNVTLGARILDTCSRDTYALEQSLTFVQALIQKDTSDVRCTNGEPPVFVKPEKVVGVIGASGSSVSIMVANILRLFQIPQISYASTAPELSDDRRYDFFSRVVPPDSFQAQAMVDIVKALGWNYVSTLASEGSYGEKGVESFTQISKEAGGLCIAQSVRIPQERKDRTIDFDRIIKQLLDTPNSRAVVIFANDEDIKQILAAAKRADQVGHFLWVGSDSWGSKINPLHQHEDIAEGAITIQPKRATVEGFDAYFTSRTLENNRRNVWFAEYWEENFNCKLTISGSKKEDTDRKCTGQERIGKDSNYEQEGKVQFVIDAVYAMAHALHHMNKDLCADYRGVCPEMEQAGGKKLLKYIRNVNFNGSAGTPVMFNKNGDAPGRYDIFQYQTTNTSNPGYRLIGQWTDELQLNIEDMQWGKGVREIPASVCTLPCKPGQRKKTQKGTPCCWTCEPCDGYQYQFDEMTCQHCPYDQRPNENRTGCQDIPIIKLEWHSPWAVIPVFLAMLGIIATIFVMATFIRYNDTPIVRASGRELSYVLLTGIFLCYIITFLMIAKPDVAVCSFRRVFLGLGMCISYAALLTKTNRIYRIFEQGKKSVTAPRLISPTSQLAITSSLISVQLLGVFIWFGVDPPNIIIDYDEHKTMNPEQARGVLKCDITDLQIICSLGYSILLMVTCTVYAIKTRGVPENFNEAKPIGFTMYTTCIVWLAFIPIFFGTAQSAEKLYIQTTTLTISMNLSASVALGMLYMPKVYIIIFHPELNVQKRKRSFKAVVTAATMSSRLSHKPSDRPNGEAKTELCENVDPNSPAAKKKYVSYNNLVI
Assay: Activity at human recombinant mGluR7 expressed in BHK cells assessed as cAMP production
pEC50: −log10 of the molar value.
measurement-name: pEC50

[[record]]
compound = "NC(C(=O)O)[C@H]1[C@H](c2ccccc2)[C@@H]1P(=O)(O)O (stereo partly drawn)"
target_under_test = "Metabotropic glutamate receptor 7 (Homo sapiens, UniProt Q14831)"
measurement_name = "pEC50"
reported = "< 3.00"

[[record]]
compound = "NC(C(=O)O)[C@H]1C[C@@H]1P(=O)(O)O (stereo partly drawn)"
target_under_test = "Metabotropic glutamate receptor 7 (Homo sapiens, UniProt Q14831)"
measurement_name = "pEC50"
reported = 3.15

[[record]]
compound = "NC(C(=O)O)[C@@H]1[C@@H](c2ccccc2)[C@H]1P(=O)(O)O (stereo partly drawn)"
target_under_test = "Metabotropic glutamate receptor 7 (Homo sapiens, UniProt Q14831)"
measurement_name = "pEC50"
reported = "< 3.00"


* * *

Each record here notes measured Ki.
Target: UniProtKB P31423
Sequence (P31423 whole entry): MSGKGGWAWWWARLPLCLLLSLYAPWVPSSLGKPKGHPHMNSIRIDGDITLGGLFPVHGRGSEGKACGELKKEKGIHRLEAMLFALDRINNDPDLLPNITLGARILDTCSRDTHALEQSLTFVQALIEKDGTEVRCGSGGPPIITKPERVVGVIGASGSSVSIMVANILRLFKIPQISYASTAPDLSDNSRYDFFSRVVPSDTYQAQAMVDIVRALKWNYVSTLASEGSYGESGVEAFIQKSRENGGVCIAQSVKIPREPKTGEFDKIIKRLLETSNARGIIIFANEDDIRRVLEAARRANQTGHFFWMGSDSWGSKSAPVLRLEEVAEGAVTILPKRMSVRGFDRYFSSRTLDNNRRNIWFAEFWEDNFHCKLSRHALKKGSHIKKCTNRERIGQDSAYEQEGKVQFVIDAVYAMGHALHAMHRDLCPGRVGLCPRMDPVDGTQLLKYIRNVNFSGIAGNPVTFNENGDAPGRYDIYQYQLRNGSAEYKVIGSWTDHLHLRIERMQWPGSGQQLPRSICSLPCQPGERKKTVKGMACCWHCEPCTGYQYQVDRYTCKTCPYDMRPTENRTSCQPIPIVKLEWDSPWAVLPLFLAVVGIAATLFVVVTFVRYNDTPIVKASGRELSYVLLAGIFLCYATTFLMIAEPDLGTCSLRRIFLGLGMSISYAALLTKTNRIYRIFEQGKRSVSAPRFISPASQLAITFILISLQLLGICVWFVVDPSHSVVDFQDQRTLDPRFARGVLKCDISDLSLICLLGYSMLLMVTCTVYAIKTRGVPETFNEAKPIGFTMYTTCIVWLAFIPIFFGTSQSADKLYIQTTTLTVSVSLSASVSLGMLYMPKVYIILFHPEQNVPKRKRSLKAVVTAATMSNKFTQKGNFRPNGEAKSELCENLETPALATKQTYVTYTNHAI
Test: Displacement of [3H]L-AP4 from rat recombinant mGluR4 expressed in BHK cells by SPA assay
measurement-name: Ki (µM)

[[record]]
compound = "NC(C(=O)O)[C@H]1[C@H](c2ccccc2)[C@@H]1P(=O)(O)O (stereo not given in full)"
measurement_name = "Ki"
modifier_sign = "="
reported = 24

[[record]]
compound = "NC(C(=O)O)[C@H]1[C@@H](c2ccccc2)[C@@H]1P(=O)(O)O (stereo not given in full)"
measurement_name = "Ki"
modifier_sign = "="
reported = 630

[[record]]
compound = "NC(C(=O)O)[C@H]1C[C@@H]1P(=O)(O)O (stereo not given in full)"
measurement_name = "Ki"
modifier_sign = "="
reported = 7.4

[[record]]
compound = "NC(C(=O)O)[C@@H]1[C@@H](c2ccccc2)[C@H]1P(=O)(O)O (stereo not given in full)"
measurement_name = "Ki"
modifier_sign = ">"
reported = 1000

[[record]]
compound = "NC(C(=O)O)[C@@H]1[C@H](c2ccccc2)[C@H]1P(=O)(O)O (stereo not given in full)"
measurement_name = "Ki"
modifier_sign = ">"
reported = 1000


* * *

Let's look at some compounds and their measured pKi.
Biological target: Metabotropic glutamate receptor 8 (Rattus norvegicus, UniProt P70579)
Sequence (P70579 whole entry): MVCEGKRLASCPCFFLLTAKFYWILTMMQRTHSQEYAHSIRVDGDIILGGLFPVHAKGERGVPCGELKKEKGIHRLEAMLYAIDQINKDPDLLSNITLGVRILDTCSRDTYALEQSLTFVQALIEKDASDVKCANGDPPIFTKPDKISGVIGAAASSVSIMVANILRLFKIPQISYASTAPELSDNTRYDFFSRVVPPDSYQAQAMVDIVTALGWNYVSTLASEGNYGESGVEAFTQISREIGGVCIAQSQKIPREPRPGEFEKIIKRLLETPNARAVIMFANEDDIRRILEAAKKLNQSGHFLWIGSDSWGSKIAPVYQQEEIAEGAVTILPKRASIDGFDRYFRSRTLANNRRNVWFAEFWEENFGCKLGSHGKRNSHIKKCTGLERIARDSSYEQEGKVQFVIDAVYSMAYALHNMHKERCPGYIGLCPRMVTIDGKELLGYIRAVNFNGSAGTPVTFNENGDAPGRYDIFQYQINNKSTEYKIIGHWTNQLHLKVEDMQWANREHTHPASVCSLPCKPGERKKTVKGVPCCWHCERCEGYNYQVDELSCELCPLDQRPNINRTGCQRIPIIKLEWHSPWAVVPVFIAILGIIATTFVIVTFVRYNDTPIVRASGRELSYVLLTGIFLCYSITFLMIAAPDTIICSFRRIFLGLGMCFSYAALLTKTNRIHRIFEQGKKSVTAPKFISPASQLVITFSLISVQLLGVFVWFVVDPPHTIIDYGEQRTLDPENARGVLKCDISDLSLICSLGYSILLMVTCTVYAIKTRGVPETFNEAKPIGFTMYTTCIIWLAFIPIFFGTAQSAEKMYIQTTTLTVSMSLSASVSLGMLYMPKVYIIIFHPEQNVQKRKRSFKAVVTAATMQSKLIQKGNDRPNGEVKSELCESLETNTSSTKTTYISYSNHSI
Experiment: Displacement of [3H]LY341495 from rat recombinant mGluR8 expressed in BHK cells by SPA assay
pKi: −log10 of the molar value.
measurement-name: pKi

[[record]]
compound = "NC(C(=O)O)[C@H]1[C@@H](c2ccccc2)[C@@H]1P(=O)(O)O (stereo partly drawn)"
target_under_test = "Metabotropic glutamate receptor 8 (Rattus norvegicus, UniProt P70579)"
reported = 3.72

[[record]]
compound = "NC(C(=O)O)[C@H]1[C@H](c2ccccc2)[C@@H]1P(=O)(O)O (stereo partly drawn)"
target_under_test = "Metabotropic glutamate receptor 8 (Rattus norvegicus, UniProt P70579)"
reported = 3.89

[[record]]
compound = "NC(C(=O)O)[C@H]1C[C@@H]1P(=O)(O)O (stereo partly drawn)"
target_under_test = "Metabotropic glutamate receptor 8 (Rattus norvegicus, UniProt P70579)"
reported = 4.20


* * *

As shown below, each of these compounds has a reported EC50 value.
Target: Metabotropic glutamate receptor 2 (Homo sapiens, UniProt Q14416)
Sequence (Q14416 whole entry): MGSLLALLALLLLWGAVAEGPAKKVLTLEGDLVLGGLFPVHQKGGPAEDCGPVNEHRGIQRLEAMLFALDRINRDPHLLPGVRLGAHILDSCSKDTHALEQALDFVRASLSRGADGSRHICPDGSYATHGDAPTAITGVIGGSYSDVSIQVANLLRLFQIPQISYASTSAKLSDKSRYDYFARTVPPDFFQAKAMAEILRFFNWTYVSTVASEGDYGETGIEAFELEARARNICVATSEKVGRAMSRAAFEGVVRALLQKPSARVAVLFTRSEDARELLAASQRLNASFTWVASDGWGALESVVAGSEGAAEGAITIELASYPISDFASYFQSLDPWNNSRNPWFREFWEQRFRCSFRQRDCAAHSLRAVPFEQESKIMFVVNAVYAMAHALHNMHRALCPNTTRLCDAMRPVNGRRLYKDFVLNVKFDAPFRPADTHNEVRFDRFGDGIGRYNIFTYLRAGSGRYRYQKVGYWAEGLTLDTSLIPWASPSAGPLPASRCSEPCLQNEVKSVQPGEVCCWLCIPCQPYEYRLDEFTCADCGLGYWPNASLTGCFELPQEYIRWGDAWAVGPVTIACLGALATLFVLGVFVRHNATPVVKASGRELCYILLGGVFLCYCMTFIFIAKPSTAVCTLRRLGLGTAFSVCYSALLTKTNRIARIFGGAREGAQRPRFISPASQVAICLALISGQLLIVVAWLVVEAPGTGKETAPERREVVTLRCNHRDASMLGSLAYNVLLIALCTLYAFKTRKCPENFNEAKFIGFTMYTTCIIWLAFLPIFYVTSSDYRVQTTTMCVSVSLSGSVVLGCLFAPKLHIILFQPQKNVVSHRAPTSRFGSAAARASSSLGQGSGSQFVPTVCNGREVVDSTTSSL
Assay: Activity at human recombinant mGluR2 expressed in BHK cells assessed as stimulation of [35S]GTP-gamma-S binding
measurement-name: EC50

[[record]]
compound = "NC(C(=O)O)[C@@H]1[C@@H](c2ccccc2)[C@H]1P(=O)(O)O (stereo not given in full)"
reported = "> 1 mM"

[[record]]
compound = "NC(C(=O)O)[C@H]1[C@@H](c2ccccc2)[C@@H]1P(=O)(O)O (stereo not given in full)"
reported = "0.32 mM"

[[record]]
compound = "NC(C(=O)O)[C@H]1[C@H](c2ccccc2)[C@@H]1P(=O)(O)O (stereo not given in full)"
reported = "> 1 mM"

[[record]]
compound = "NC(C(=O)O)[C@@H]1[C@H](c2ccccc2)[C@H]1P(=O)(O)O (stereo not given in full)"
reported = "> 1 mM"

[[record]]
compound = "NC(C(=O)O)[C@H]1C[C@@H]1P(=O)(O)O (stereo not given in full)"
reported = "> 1 mM"

